// reported IC50 for each item listed
# Tested on: IL-2 stimulated proliferation (CTLL.6 cytolytic T cell)
# runDescription: Assay 3: cytokine dependent cell proliferation, IL-2
# Type: cell-based
# testContext: Mus musculus, 50% inhibition of IL-2 dependent cell proliferation, 0.01 to 1 µM tested
measuredAttribute: IC50

# molecule, result
records = [
    ("C[C@]12CC[C@@H]3c4ccc(O)cc4CC[C@H]3[C@@H]1CC[C@@H]2O [17-β-E2, 17-b-estradiol]", "> 1000 nM"),
    ("O=C(c1ccc(OCCN2CCCCC2)cc1)c1c(-c2ccc(O)cc2)sc2cc(O)ccc12 [Raloxifene]", "> 1000 nM"),
]
